Target: Cathepsin K (Homo sapiens, UniProt P43235)
Construct: purchased Biovision K150-100
Sequence (P43235 115-329): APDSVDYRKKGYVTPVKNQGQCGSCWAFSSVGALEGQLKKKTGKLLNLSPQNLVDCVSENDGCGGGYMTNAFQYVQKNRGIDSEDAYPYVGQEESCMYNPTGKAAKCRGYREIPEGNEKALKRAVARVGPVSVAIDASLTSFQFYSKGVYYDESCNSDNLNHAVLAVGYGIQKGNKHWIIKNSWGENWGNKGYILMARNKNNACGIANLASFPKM
Assay: Preliminary screening of Cathepsin K (Cathepsin K Inhibitor Screening Kit K150-100, Biovision)
Type: biochemical
Conditions: 1 μM compound; replicate 1; relative inhibition rate vs 10 μM FF-FMK control; read-out: Inhibition % (1 μM) replicate 1
Metric: inhibition at 1 µM (%)
Numbers only, in %.

// solved cases for inhibition at 1 µM follow
Compound	Metric	Unit Name	Reported
CCCC(C)NC(=O)[C@H](CCSC)NC(=O)[C@H]1O[C@@H]1C(=O)OCC (some centres unmarked) [Compound 6]	inhibition at 1 µM	%	31.6
CCOC(=O)[C@H]1O[C@@H]1C(=O)N[C@@H](CSCc1ccccc1)C(=O)NCC(C)(C)C [Compound 15]	inhibition at 1 µM	%	28.1
CCOC(=O)[C@H]1O[C@@H]1C(=O)N[C@@H](CCSC)C(=O)N1CCCCC1CC (some centres unmarked) [Compound 35]	inhibition at 1 µM	%	37.8
CCOC(=O)[C@H]1O[C@@H]1C(=O)N[C@@H](CCSC)C(=O)NCCc1cccc(F)c1 [Compound 34]	inhibition at 1 µM	%	88.6
CCOC(=O)[C@H]1O[C@@H]1C(=O)N[C@@H](CCSC)C(=O)NCC(C)CC (some centres unmarked) [Compound 3]	inhibition at 1 µM	%	31

Give inhibition at 1 µM for each of the items listed below.
1. CCOC(=O)[C@H]1O[C@@H]1C(=O)N[C@@H](CSCc1ccccc1)C(=O)NC(C)CC (some centres unmarked) [Compound 19]
2. CCOC(=O)[C@H]1O[C@@H]1C(=O)N[C@@H](CSCc1ccccc1)C(=O)N1CCC(c2ccccc2)CC1 [Compound 23]
3. CCOC(=O)[C@H]1O[C@@H]1C(=O)N[C@@H](CCSC)C(=O)N1CCOCC1 [Compound 12]
4. CCOC(=O)[C@H]1O[C@@H]1C(=O)N[C@@H](CCSC)C(=O)N1CCSCC1 [Compound 36]
5. CCCNC(=O)[C@H](CSCc1ccccc1)NC(=O)[C@H]1O[C@@H]1C(=O)OCC [Compound 17]
6. CCOC(=O)[C@H]1O[C@@H]1C(=O)N[C@@H](CCSC)C(=O)NCCCc1ccccc1 [Compound 8]
7. CCOC(=O)[C@H]1O[C@@H]1C(=O)N[C@@H](CCSC)C(=O)NCCc1ccc(C)cc1 [Compound 33]

Found:
[32, 16.1, 15.4, 17.5, 26.9, 80.5, 36.6]

Provide inhibition at 1 µM for all items below, preserving their order.
1. CCOC(=O)[C@H]1O[C@@H]1C(=O)N[C@@H](CCSC)C(=O)N1CCC(c2ccccc2)CC1 [Compound 13]
2. CCOC(=O)[C@H]1O[C@@H]1C(=O)N[C@@H](CCSC)C(=O)NCC(C)C [Compound 9]

Found:
1. 99.7
2. 25.6

Below are 3 compounds. Give each one its inhibition at 1 µM.
1. CCCNC(=O)[C@H](CCSC)NC(=O)[C@H]1O[C@@H]1C(=O)OCC [Compound 4]
2. CCOC(=O)[C@H]1O[C@@H]1C(=O)N[C@@H](CSCc1ccccc1)C(=O)NCCc1ccc(C)cc1 [Compound 21]
3. CCOC(=O)[C@H]1O[C@@H]1C(=O)N[C@@H](CCSC)C(=O)NCCc1ccc(OC)cc1 [Compound 10]

Found:
15.6
33.1
33.1
